Data credit: PubChem BioAssay

The following molecules are listed with their measured inhibition values.
assay: 384-well plate pilot, post-Golgi transport modulator project, inhibition of yeast transport mutant growth (AID 636); conditions: absorbance 615 nm, about 18 h, stronger effect = higher value
Report only the number, with the unit % understood.

Some entries whose results are on file:
molecule=N=c1c(C(=O)NCc2ccccc2)cc2c(=O)n3ccccc3nc2n1Cc1ccco1 metric=inhibition display_unit=% observed=-4.25
molecule=COc1ccccc1OCCCn1c(=O)oc2ccccc21 metric=inhibition display_unit=% observed=-1.56
molecule=CCOCC(=O)Nc1nc2ccc(OC)cc2s1 metric=inhibition display_unit=% observed=0.79
molecule="COc1cccc(Nc2nnc(SCC(=O)N3CC(C)OC(C)C3)s2)c1 (stereo not given)" metric=inhibition display_unit=% observed=-2.4

# input for lookup
Query: Tell me inhibition reported for CCOC(=O)Cn1nnnc1CN(Cc1ccc(OC)cc1)Cc1cc2cc(C)cc(C)c2[nH]c1=O
Response: -1.32

====

experiment: reversal of MRP1-mediated doxorubicin resistance, pilot screen, H69AR cells, doxorubicin co-treatment (AID 601); details: H69AR cells, CellTiter-Glo, 72 h; compound alone cytotoxicity; at 10 µM
Listing of recorded viability by entry.
Write the value in % as a bare number.

# annotated cases, reported viability shown
molecule=CCCC(=O)Nc1cnc(NC(=O)c2cccc(F)c2)cc1C observed=88.7
molecule="O=C(Nc1ccc(S(=O)(=O)Nc2ccc(Cl)cc2)cc1)C1CCCO1 (configuration not stated)" observed=90.2
molecule=CCOC(=O)c1cc(CC)sc1NC(=O)COC observed=88.8
molecule="O=C(C1=C(O)C(=O)N(c2ncccn2)C1c1cccc(Cl)c1)c1ccco1 (configuration not stated)" observed=89.2
molecule=CC1=Nn2c(nnc2-c2ccccc2)SC1 observed=95.2
molecule="CC(NCCc1ccc(O)cc1)C(O)c1ccc(O)cc1 (configuration not stated)" observed=99.4
molecule=CN(C)c1nc(N)nc(CSc2nnnn2-c2cccc3ccccc23)n1 observed=70.1
molecule="CCOC(=O)C1CSc2[nH]c(=O)sc2C1c1ccccc1 (configuration not stated)" observed=93.2
molecule=CCOc1ccccc1N1CCN(C(=O)c2ccncc2)CC1 observed=93.6
molecule=CCC(C(=O)Nc1ncccn1)(C(F)(F)F)C(F)(F)F observed=103

Query: Tell me its viability given Cc1cc(C)cc(-n2ccnc2SCC(=O)Nc2ccc3c(c2)OCCO3)c1 as the entry.
Response: 99.3

Query: Identify measured viability associated with CCn1cc(C2Nc3ccccc3C(=O)N2O)c(C)n1 (configuration not stated)
Response: 90

Query: Identify the reported viability for the following entry. COc1ccc(CCNC(=O)CSc2nnc(CNc3ccc(Cl)cc3)o2)cc1OC
Response: 84.3

Query: Quick one: give measured viability for Cn1c(Cc2cccs2)nnc1SCC(=O)N1CCc2ccccc21
Response: 84.3

Query: Name the recorded viability of the item COC(=O)Nc1nc2ccc(C(=O)c3ccccc3)cc2[nH]1 in your answer.
Response: 26.1

Query: # return recorded viability for entry C/C=C(\C)c1nnc(NC(=O)OCC)s1
Response: 96.4

Query: Tell me measured viability for CC1CCC(NC(=O)C2CCN(c3cnccn3)CC2)CC1 (configuration not stated) please.
Response: 92.5

Query: Please list viability recorded for the molecule CCC(=O)c1ccc(OCC(=O)N2CCc3cc(OC)c(OC)cc3C2)cc1
Response: 82.9

Query: Give the value of viability reported for the following: CCc1nnc(NC(=O)CSc2nnc3ncccn23)s1
Response: 95.5

Query: Entry CCCCN1C(=O)C2C(C(=O)Nc3cccc(OC)c3)C3C=CC2(O3)C1C(=O)NC1CCCCC1C (configuration not stated) needs its viability filled in; supply it.
Response: 82.1

Query: Read off the recorded viability for O=C(c1ccc(F)cc1)C1CCN(CCn2c(=O)[nH]c3ccccc3c2=O)CC1
Response: 96.2

Query: Give reported viability value for CC(C)(C)N=C1NC(=NC(C)(C)C)c2ccccc21
Response: 69.3
